- SUBJECT OF TEST: SHP2 protein (Homo sapiens, UniProt Q06124)
- Sequence (Q06124 1-593): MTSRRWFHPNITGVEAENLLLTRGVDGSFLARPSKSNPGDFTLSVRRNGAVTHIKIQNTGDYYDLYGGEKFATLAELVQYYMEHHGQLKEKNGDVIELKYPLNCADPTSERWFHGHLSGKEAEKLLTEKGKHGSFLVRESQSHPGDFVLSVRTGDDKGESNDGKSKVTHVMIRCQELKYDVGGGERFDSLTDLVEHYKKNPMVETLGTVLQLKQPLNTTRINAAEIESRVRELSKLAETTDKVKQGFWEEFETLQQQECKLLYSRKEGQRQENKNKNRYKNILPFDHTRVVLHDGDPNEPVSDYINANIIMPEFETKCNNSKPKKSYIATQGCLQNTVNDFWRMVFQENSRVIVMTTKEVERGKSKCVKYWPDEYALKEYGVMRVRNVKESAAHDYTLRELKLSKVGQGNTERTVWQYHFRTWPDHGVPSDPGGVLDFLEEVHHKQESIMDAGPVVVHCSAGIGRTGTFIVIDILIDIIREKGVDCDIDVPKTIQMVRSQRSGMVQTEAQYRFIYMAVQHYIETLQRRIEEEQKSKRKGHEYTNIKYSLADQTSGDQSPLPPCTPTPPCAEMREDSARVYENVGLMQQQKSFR
- TEST METHOD NOTES: Degradation activity on SHP2 protein in MIA Paca-2 cells (Western blot, DC50)
- Type: cell-based
- Design: endogenous in cells; host or cells: MIA Paca-2 cells
- CONDITION NOTES: read-out: Degradation activity for differenct cell lines MIA Paca-2 (DC50)
In this section we review reported DC50 values for a set of molecules.
READOUT LABEL: DC50

>>> result("CC1(N)CCN(c2cnc(Sc3cccc(N4CCC(C(=O)N5CCN(c6ccc7c(c6)CN(C6CCC(=O)NC6=O)C7=O)CC5)CC4)c3)cn2)CC1 (stereo not shown) [Compound 333]")
"> 1000 nM"
>>> result("Cn1nc(C(=O)NCc2ccc3c(c2)CN(C2CCC(=O)NC2=O)C3=O)cc1C1=CCN(CCCCCCCCC(=O)Nc2cccc(Sc3cnc(N4CCC(C)(N)CC4)cn3)c2)CC1 (stereo not shown) [Compound 246]")
"< 100 nM"
>>> result("CC1(N)CCN(c2cnc(Sc3cccc(NC(=O)c4ccc(N5CCC(N6CCN(c7ccc(C(=O)NCc8ccc9c(c8)CN(C8CCC(=O)NC8=O)C9=O)nc7)CC6)CC5)c(F)c4)c3)cn2)CC1 (stereo not shown) [Compound 396]")
"< 100 nM"
>>> result("CC1(N)CCN(c2cnc(Sc3cccc(NC(=O)CCN4CC=C(c5ccc(C(=O)NCc6ccc7c(c6)CN(C6CCC(=O)NC6=O)C7=O)nc5)C(C)(C)C4)c3)cn2)CC1 (stereo not shown) [Compound 274]")
"> 1000 nM"
>>> result("CC1(N)CCN(c2cnc(Sc3cccc(NC(=O)C4CCC(N5CCC(N6CC=C(c7ccc(C(=O)NCc8ccc9c(c8)CN(C8CCC(=O)NC8=O)C9=O)nc7)CC6)C(F)C5)CC4)c3)cn2)CC1 (stereo not shown) [Compound 420]")
"< 100 nM"
>>> result("CC1(N)CCN(c2cnc(Sc3cccc(NC(=O)CCCCCCCCN4CC=C(c5ccc(C(=O)NCc6ccc7c(c6)CN(C6CCC(=O)NC6=O)C7=O)nc5)C(C)(C)C4)c3)cn2)CC1 (stereo not shown) [Compound 222]")
"< 100 nM"
>>> result("Cc1cc(N2CCC(N3CC=C(c4cnc(C(=O)NCc5ccc6c(c5)CN(C5CCC(=O)NC5=O)C6=O)c(Cl)c4)CC3)CC2)ccc1C(=O)Nc1cccc(Sc2cnc(N3CCC(C)(N)CC3)cn2)c1 (stereo not shown) [Compound 443]")
"100 to 1000 nM"
>>> result("Cc1ncsc1-c1ccc([C@H](C)NC(=O)[C@@H]2C[C@@H](O)CN2C(=O)[C@@H](NC(=O)c2cnc(N3CCN(CC(=O)Nc4cccc(Sc5cnc(N6CCC(C)(N)CC6)cn5)c4)CC3)nc2)C(C)(C)C)cc1 [Compound 231]")
"> 1000 nM"
>>> result("CC1(N)CCN(c2cnc(Sc3cccc(NC(=O)CCCCCCCN4CC5(CCN(c6ccc(COc7cccc8c7CN(C7CCC(=O)NC7=O)C8=O)nn6)C5)C4)c3)cn2)CC1 (stereo not shown) [Compound 107]")
"> 1000 nM"
>>> result("C[C@@H]1OCC2(CCN(c3cnc(Sc4cccc(NCc5ccc(N6CCC(N7CC=C(c8ccc(C(=O)NCc9ccc%10c(c9)CN(C9CCC(=O)NC9=O)C%10=O)nc8Cl)CC7)CC6)c(F)c5)c4)cn3)CC2)[C@@H]1N (stereo partly shown) [Compound 518]")
"100 to 1000 nM"
